Origin of values: paper PMC4912613

System: 3D7
assay-procedure: Cross-resistance EC50 assay, 3D7 parent / sensitive strain
Type: cell-based
run-conditions: Plasmodium falciparum; hypoxanthine 48-hour assay; synchronized parasites; 96-well format; strain 3D7 (parent); read-out: 3D7 (PARENT) Average EC50
Decide using EC50 alone. Strictly below 300 nM: Yes. Equal to or above 300 nM: No.

- Cc1ccc(Oc2ncccc2C(=O)Cc2cccc3cccnc23)c(C)c1: Yes
- CC(NCc1ccccc1)c1cc(Cl)ccc1O (centres unmarked): No
- COc1cc2cc(C(=O)Nc3ccccc3)c(N)nc2cc1OC: No
- Cc1cc(Nc2ccc(OCc3ccccc3)cc2)nc2cc(O)ccc12: No
- O=C(NC(c1ccccc1)c1ccc2cccnc2c1O)c1ccccc1 (centres unmarked): No
- COC(=O)c1ccc(C2C3=C(O)CC(c4ccc(F)cc4)CC3=Nc3ccccc3N2C(=O)c2ccccc2)cc1 (centres unmarked): No
- Cc1c(C)n(Cc2ccc(F)cc2)c2ccc(C(=O)NCc3ccco3)cc12: No
- O=C(NCC(CCCN1CCC(c2c[nH]c3ccccc23)CC1)c1ccccc1)Nc1ccc(Cl)c(Cl)c1 (centres unmarked): Yes
- COc1cc(-c2nc(-c3ccccc3)c(-c3ccccc3)[nH]2)cc(OC)c1O: No
- Cc1nc2ccc3ccc(CNc4ccc(C(=O)CC(CCC(=O)O)C(=O)O)cc4)cc3c2c(=O)[nH]1.Cl (centres unmarked): Yes
- CN(C)Cc1ccc(-c2cc3c(-c4ccc(CN(C)C)cc4)ccnc3[nH]2)cc1.O=C(O)C(F)(F)F: No
- Cc1ccc(S(=O)(=O)n2cc(-c3ccnc(N)c3)c3cc(Br)cnc32)cc1: Yes
- Cc1ccc(Cn2c(N3CCC(C(=O)NCc4cccs4)CC3)nc3ccccc32)cc1: No
- COc1cc(C(=O)ON=C(N)Cc2cccc3ccccc23)cc(OC)c1OC: No
- CN(C)CCCN(C)C(=O)C1Cc2cc(-c3ccccc3)ccc2N1S(=O)(=O)c1ccccc1 (centres unmarked): Yes
- CNCc1ccc2nc(-c3coc(Cc4cc(Cl)ccc4OCC(C)C)n3)[nH]c2c1.Cl.Cl: No
- CN(C)S(=O)(=O)c1cc(-c2ccc3nccc(-c4cccc(S(N)(=O)=O)c4)c3c2)cnc1N: Yes
- CC(C)c1cccc(C(NC(=O)C2Cc3ccccc3CN2C(=O)c2cccc(N3CCOCC3)c2)C2CCCC2)c1 (centres unmarked): No
- c1cncc(-c2cc(N3CCC(CN4CCOCC4)CC3)nc(-c3ccncc3)n2)c1: Yes
- Nc1ccc(-c2nc3cc(Oc4ccc(Oc5ccc6[nH]c(-c7ccc(N)cc7)nc6c5)cc4)ccc3[nH]2)cc1: Yes
- COc1cc(-c2nc(-c3ccccc3)c(-c3ccccc3)[nH]2)ccc1OCCN(C)C: Yes
- OC(CNC1CCCCC1)Cn1c2ccc(I)cc2c2cc(I)ccc21 (centres unmarked): Yes
- COc1ccccc1CNC(=O)CCn1c(=O)[nH]c2ccsc2c1=O: No
- CCCOCc1cc(CN2CCN(c3cccc(Cl)c3)CC2)c(O)c2ncccc12: No
- O=C(Nc1ccc(Cl)c(Cl)c1)Nc1ccc(Cl)c(Cl)c1: No
- CCN(CC)S(=O)(=O)c1ccc(-c2csc(Nc3ccc(C)c(C)c3)n2)cc1: No
